# Test system: HCV (Ib) RNA replication
# method_description: Cell-based luciferase reporter HCV (1b) RNA replication assay (replicon cell lines Huh-7 5.2 and ET)
# Design: species or system Hepatitis C virus
# measurement_conditions: Hepatitis C virus, Huh-7, 96 h, HCV 1b genotype replicon, luciferase readout, 4 days incubation; read-out: EC50_1b
metric: EC50

compound	assay_value
CC(C)[C@H](NC(=O)O[C@H]1CCOC1)C(=O)N1CCC[C@H]1c1nc2cc(-c3csc(-c4ccc5[nH]c([C@@H]6CCCN6C(=O)[C@@H](NC(=O)O[C@H]6CCOC6)C(C)C)nc5c4)n3)ccc2[nH]1 [Compound 160]	5 to 5000 nM
COC(=O)NC(C(=O)N1CCCC1c1nc2cc(-c3ccc(-c4ccc5nc(C6CCCN6C(=O)C(NC(=O)OC)C(C)(C)C)[nH]c5c4)cc3)ccc2[nH]1)C(C)(C)C (stereo not shown) [Compound 190]	≤ 5 nM
O=C(CC1CCCCC1)N1CCC[C@H]1c1nc2cc(C#Cc3ccc4[nH]c([C@@H]5CCCN5C(=O)CC5CCCCC5)nc4c3)ccc2[nH]1 [Compound 103]	5 to 5000 nM
COC(=O)N[C@H](C(=O)N1CCCC[C@H]1c1nc2cc(C#Cc3ccc4[nH]c([C@@H]5CCCN5C(=O)[C@@H](NC(=O)OC)C(C)C)nc4c3)ccc2[nH]1)C(C)C [Compound 60]	≤ 5 nM
COC(=O)N[C@H](C(=O)N1C[C@@H](C)C[C@H]1c1nc2cc(-c3ccc(-c4ccc5[nH]c([C@@H]6C[C@H](C)CN6C(=O)[C@@H](NC(=O)OC)C(C)C)nc5c4)c(C)c3)ccc2[nH]1)C(C)C [Compound 237]	≤ 5 nM
C(#Cc1ccc2[nH]c([C@@H]3CCCN3CCC3CCOCC3)nc2c1)c1ccc2[nH]c([C@@H]3CCCN3CCC3CCOCC3)nc2c1 [Compound 138]	5 to 5000 nM
COC(=O)N(C)[C@H](C(=O)N1CCC[C@H]1c1nc2cc(CCc3ccc4nc([C@@H]5CCCN5C(=O)[C@H](C(C)C)N(C)C(=O)OC)[nH]c4c3)ccc2[nH]1)C(C)C [Compound 72]	≤ 5 nM
CC(C)[C@H](NC(=O)Cc1c[nH]c2ccccc12)C(=O)N1CCC[C@H]1c1nc2cc(C#Cc3ccc4[nH]c([C@@H]5CCCN5C(=O)[C@@H](NC(=O)Cc5c[nH]c6ccccc56)C(C)C)nc4c3)ccc2[nH]1 [Compound 89]	5 to 5000 nM
CC(C)(C)OC(=O)N1CC[C@H]1C(=O)N1CCC[C@H]1c1nc2cc(C#Cc3ccc4[nH]c([C@@H]5CCCN5C(=O)[C@@H]5CCN5C(=O)OC(C)(C)C)nc4c3)ccc2[nH]1 [Compound 129]	> 5000 nM
COC(=O)N[C@H](C(=O)N1CCC[C@H]1c1nc2cc(C#Cc3ccc4[nH]c([C@@H]5CCCN5C(=O)[C@@H](NC(=O)OC)C(C)C)nc4c3)ccc2[nH]1)C(C)C [Compound 37]	≤ 5 nM
COC(=O)N(C)[C@H](C(=O)N1C[C@@H](C)C[C@H]1c1nc2cc(-c3ccc(-c4ccc5[nH]c([C@@H]6C[C@H](C)CN6C(=O)[C@H](C(C)C)N(C)C(=O)OC)nc5c4)c(C)c3)ccc2[nH]1)C(C)C [Compound 266]	≤ 5 nM
COC(=O)N[C@H](C(=O)N1CCC[C@H]1c1nc2cc(-c3c[nH]c(-c4ccc5nc([C@@H]6CCCN6C(=O)[C@@H](NC(=O)OC)C(C)C)[nH]c5c4)n3)ccc2[nH]1)C(C)C [Compound 202]	5 to 5000 nM
Cn1c([C@@H]2CCCN2)nc2cc(-c3ccc(-c4ccc5c(c4)nc([C@@H]4CCCN4)n5C)cc3)ccc21 [Compound 227]	> 5000 nM

---

Examples of compounds with documented EC50 follow.
# Tested on: HCV (Ib) RNA replication
# method_description: Cell-based luciferase reporter HCV (1b) RNA replication assay (replicon cell lines Huh-7 5.2 and ET)
# Parameters: species or system Hepatitis C virus
# measurement_conditions: Hepatitis C virus, Huh-7, 96 h, HCV 1b genotype replicon, luciferase readout, 4 days incubation; read-out: EC50_1b

compound	EC50
COC(=O)N(C)[C@H](C(=O)N1C[C@@H](C)C[C@H]1c1nc2cc(-c3cc(F)c(-c4ccc5[nH]c([C@@H]6C[C@H](C)CN6C(=O)[C@H](C(C)C)N(C)C(=O)OC)nc5c4)cc3F)ccc2[nH]1)C(C)C	≤ 5 nM
COC(=O)N[C@H](C(=O)N1CCC[C@H]1c1nc2cc(N3CCN(c4ccc5nc([C@@H]6CCCN6C(=O)[C@@H](NC(=O)OC)C(C)C)[nH]c5c4)[C@H](C)C3)ccc2[nH]1)C(C)C	≤ 5 nM
COC(=O)N[C@H](C(=O)N1C[C@@H](C)C[C@H]1c1nc2cc(-c3ccc(-c4ccc5[nH]c([C@@H]6C[C@H](C)CN6C(=O)[C@@H]6CCCN6C(=O)OC)nc5c4)cc3)ccc2[nH]1)C(C)C	≤ 5 nM
COC(=O)N[C@H](C(=O)N1CCC[C@H]1c1nc2cc(-c3ccc(-c4ccc5[nH]c([C@@H]6CCCN6C(=O)[C@@H](NC(=O)OC)C(C)C)nc5c4)c4c3OC(F)(F)O4)ccc2[nH]1)C(C)C	≤ 5 nM
COC(=O)N(C)[C@H](C(=O)N1CCC[C@H]1c1nc2cc(-c3ccc(-c4ccc5nc([C@@H]6CCCN6C(=O)[C@H](C(C)C)N(C)C(=O)OC)[nH]c5c4)cc3)ccc2[nH]1)C(C)C	≤ 5 nM
CC(C)C[C@@H](C(=O)N1CCC[C@H]1c1nc2cc(C#Cc3ccc4[nH]c([C@@H]5CCCN5C(=O)[C@H](CC(C)C)N5CCCC5=O)nc4c3)ccc2[nH]1)N1CCCC1=O	≤ 5 nM
O=C(OCc1ccccc1)N1CCC[C@H]1c1nc2ccc(N3CCN(c4ccc5nc([C@@H]6CCCN6C(=O)OCc6ccccc6)[nH]c5c4)CC3)cc2[nH]1	5 to 5000 nM
COC(=O)N[C@H](C(=O)N1C(C)CC[C@H]1c1nc2cc(-c3ccc(-c4ccc5[nH]c([C@@H]6CCC(C)N6C(=O)[C@@H](NC(=O)OC)C(C)C)nc5c4)cc3)ccc2[nH]1)C(C)C (stereo partly drawn)	≤ 5 nM
COC(=O)N[C@H](C(=O)N1CC(C)(C)C[C@H]1c1nc2cc(-c3ccc(-c4ccc5[nH]c([C@@H]6CC(C)(C)CN6C(=O)[C@@H](NC(=O)OC)C(C)C)nc5c4)cc3)ccc2[nH]1)C(C)C	≤ 5 nM
COC(=O)N[C@@H](C)C(=O)N1CCC[C@H]1c1nc2cc(C#Cc3ccc4[nH]c([C@@H]5CCCN5C(=O)[C@H](NC(=O)OC)c5ccccc5)nc4c3)ccc2[nH]1	≤ 5 nM
COC(=O)N(C(C)C)[C@H](C(=O)N1C[C@@H](C)C[C@H]1c1nc2cc(-c3ccc(-c4ccc5nc([C@@H]6C[C@H](C)CN6C(=O)[C@H](C(C)C)N(C(=O)OC)C(C)C)[nH]c5c4)cc3)ccc2[nH]1)C(C)C	≤ 5 nM
COC(=O)N[C@H](C(=O)N1CCC[C@H]1c1nc2cc(-c3ccc(-c4ccc5nc([C@@H]6CCCN6C(=O)[C@@H](NC(=O)OC)[C@@H](C)OC)[nH]c5c4)c4c3OCO4)ccc2[nH]1)[C@@H](C)OC	≤ 5 nM
COC(=O)N[C@@H](C)C(=O)N1CCC[C@H]1c1nc2cc(C#Cc3ccc4[nH]c([C@@H]5CCCCN5C(=O)OCc5ccccc5)nc4c3)ccc2[nH]1	≤ 5 nM
CC(C)(C)OC(=O)N1CCCC[C@H]1c1nc2cc(C#Cc3ccc4nc([C@@H]5CSCN5C(=O)OC(C)(C)C)[nH]c4c3)ccc2[nH]1	> 5000 nM
COC(=O)N[C@H](C(=O)N1C(C)CC[C@H]1c1nc2cc(-c3ccc(-c4ccc5[nH]c([C@@H]6CCC(C)N6C(=O)[C@H](C(C)C)N(C)C(=O)OC)nc5c4)cc3)ccc2[nH]1)C(C)C (stereo partly drawn)	≤ 5 nM

---

# System: HCV (Ib) RNA replication
# method_description: Cell-based luciferase reporter HCV (1b) RNA replication assay (replicon cell lines Huh-7 5.2 and ET)
# Design: species or system Hepatitis C virus
# measurement_conditions: Hepatitis C virus, Huh-7, 96 h, HCV 1b genotype replicon, luciferase readout, 4 days incubation; read-out: EC50_1b
pEC50: −log10 of the molar value.
metric: pEC50

molecule_smiles	assay_value
COC(=O)N[C@H](C(=O)N1CCC[C@H]1c1nc2cc(-c3ccc(-c4ccc5[nH]c([C@@H]6CC(F)(F)CN6C(=O)[C@@H](NC(=O)OC)C(C)C)nc5c4)cc3)ccc2[nH]1)C(C)C	≥ 8.30
CCCCc1cc(-c2ccc3[nH]c([C@@H]4CCCN4C(=O)[C@@H](NC(=O)O[C@H]4CCOC4)C(C)C)nc3c2)sc1-c1ccc2[nH]c([C@@H]3CCCN3C(=O)[C@@H](NC(=O)O[C@H]3CCOC3)C(C)C)nc2c1	≥ 8.30
COC(=O)N(C)[C@H](C(=O)N1C[C@@H](C)C[C@H]1c1nc2cc(-c3cc4sc(-c5ccc6[nH]c([C@@H]7C[C@H](C)CN7C(=O)[C@H](C(C)C)N(C)C(=O)OC)nc6c5)cc4s3)ccc2[nH]1)C(C)C	≥ 8.30
COC(=O)N[C@H](C(=O)N1CCC[C@H]1c1nc2cc(-c3cc(C#N)c(-c4ccc5[nH]c([C@@H]6CCCN6C(=O)[C@@H](NC(=O)OC)C(C)C)nc5c4)cc3Cl)ccc2[nH]1)C(C)C	≥ 8.30
O=C(OCc1ccccc1)N1CCC[C@H]1c1nc2cc(C#Cc3ccc4[nH]c([C@@H]5CCCN5C(=O)OCc5ccccc5)nc4c3)ccc2[nH]1	5.30 to 8.30
CCOC(=O)N[C@H](C(=O)N1CCC[C@H]1c1nc2cc(-c3ccc(-c4ccc5[nH]c([C@@H]6CCCN6C(=O)[C@@H](NC(=O)OCC)C(C)C)nc5c4)cc3)ccc2[nH]1)C(C)C	≥ 8.30
COC(=O)N[C@H](C(=O)N1[C@@H](C)CC[C@H]1c1nc2ccc(-c3ccc(-c4ccc5nc([C@@H]6CC[C@H](C)N6C(=O)[C@@H](NC(=O)OC)C(C)C)[nH]c5c4)c(F)c3)cc2[nH]1)C(C)C	≥ 8.30
COC(=O)N[C@H](C(=O)N1CCC[C@H]1c1nc2cc(C#Cc3ccc4nc([C@@H]5CCCN5C(=O)[C@@H](O)C(C)C)[nH]c4c3)ccc2[nH]1)C(C)C	≥ 8.30
CCC[C@H](NC(C)=O)C(=O)N1CCC[C@H]1c1nc2cc(C#Cc3ccc4[nH]c([C@@H]5CCCN5C(=O)[C@H](CCC)NC(C)=O)nc4c3)ccc2[nH]1	5.30 to 8.30
CC[C@H](NC(C)=O)C(=O)N1CCC[C@H]1c1nc2cc(C#Cc3ccc4[nH]c([C@@H]5CCCN5C(=O)[C@H](CC)NC(C)=O)nc4c3)ccc2[nH]1	5.30 to 8.30
COC(=O)N[C@H](C(=O)N1C[C@@H](C)C[C@H]1c1nc2cc(-c3ccc(-c4ccc5nc([C@@H]6C[C@@H](O)CN6C(=O)[C@H](NC(=O)OC)C(C)C)[nH]c5c4)cc3)ccc2[nH]1)C(C)C	≥ 8.30
COC(=O)N[C@H](C(=O)N1C[C@@H](C)C[C@H]1c1nc2cc(-c3ccc(-c4ccc5[nH]c([C@@H]6C[C@H](C)CN6C(=O)[C@H](C(C)C)N(C)C(=O)OC)nc5c4)cc3)ccc2[nH]1)C(C)C	≥ 8.30
